Origin of values: PubChem BioAssay (Tox21)

test: qHTS assay to identify small molecule antagonists of the estrogen receptor beta (ER-beta) signaling pathway - cell viability counter screen (AID 1259382); conditions: ER-beta-UAS-bla HEK293T viability, CellTiter-Glo luminescence, 16 h; series mostly up to 92.4 µM;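 also: HEK293T cells carrying ER-beta-UAS-bla reporter stimulated with estradiol; % is scaled to controls: 0 for no effect and ±100 for the full control effect; nearly all actives have a fitted effect of over 55% in size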
Inconclusive results are not listed. Activity calls are given as the source filed them. Calls follow the shape of the dose curve; as a rule, active = well fitted cell-killing curve with a large enough effect in the repeat runs; inconclusive = weak or mixed curves; inactive = flat fitted curve, though single readings scatter.
Outcomes you can answer with include only these: true (1) = active, false (0) = inactive

Observe how each entry below is paired with its result.
CCC(C)(C)C1CCC(O)CC1 (stereo unspecified)	false (0)
CCn1cc(C(=O)O)c(=O)c2cc(F)c(N3CCNCC3)nc21	false (0)
CC(=O)Oc1ccc(C(=C2CCCCC2)c2ccc(OC(C)=O)cc2)cc1	false (0)
O=C(N/N=C/c1ccc([N+](=O)[O-])o1)c1ccc(O)cc1	false (0)
CC(CCc1ccc2c(c1)OCO2)NN (stereo unspecified)	false (0)

[in] Please let me know the test result on file for c1ccc(COCc2ccccc2)cc1 .
[out] false (0)

[in] Please let me know the test result on file for C/C=C(\C)C(=O)OCCC(C)CCC=C(C)C (stereo unspecified) .
[out] false (0)

[in] Please let me know the test result on file for Cc1cc(O)c2c(O)c3c(O)cccc3cc2c1 .
[out] false (0)

[in] Please let me know the test result on file for Nc1ccc(Cl)cc1[N+](=O)[O-] .
[out] false (0)

[in] Please let me know the test result on file for CC(C)(O)c1ccccc1CC[C@@H](SCC1(CC(=O)O)CC1)c1cccc(/C=C/c2ccc3ccc(Cl)cc3n2)c1 .
[out] false (0)

---

Target: Nuclear receptor subfamily 1 group I member 2 (Homo sapiens)
Assay: Human pregnane X receptor (PXR) small molecule agonists, qHTS assay (AID 1346982); also: % is scaled to controls: 0 for no effect and ±100 for the full control effect; nearly all actives have a fitted effect of over 35% in size
Conditions: PXR-Luc HepG2, CYP3A4 luciferase reporter, 24 h; series mostly up to 92.4 µM
From the text: National Center for Advancing Translational Sciences [NCATS] NIH Chemical Genomics Center [NCGC] U.S. Environmental Protection Agency [EPA] National Institutes of Environmental Health Sciences [NIEHS] National Toxicology Program [NTP] The human pregnane X receptor (hPXR) regulates the expression of several drug metabolizing enzymes and induction of these proteins is a major mechanism for developing drug resistance in cancer. […]
Inconclusive results are not listed. Calls of active or inactive are those of the source. Calls come from the whole dose curve; as a rule, active = well fitted activation curve with a large enough effect in the repeat runs; inconclusive = weak or mixed curves; inactive = no such curve, though single readings can be large or run the other way.
Outcomes you can answer with include only these: yes (1) for active, no (0) for inactive

[in] Please let me know the test result on file for CC(C)CCCCCCOC(=O)CCCCC(=O)OCCCCCCC(C)C .
[out] no (0)

---

assay: qHTS assay to identify small molecule phospholipidosis (PLD) inducers (AID 1259344); details: HepG2 phospholipidosis, LipidTOX Red imaging, 24 h; series mostly up to 38.3 µM; also: % is scaled to controls: 0 for no effect and ±100 for the full control effect
Results filed as inconclusive are left out. Active and inactive are the calls of the source. The call rests on the fitted dose curve; in most records, active means well fitted activation curve with a large enough effect; inconclusive means small, poorly fitted or top-dose-only effect; inactive means flat fitted curve, though single readings scatter.
measured.quantity: PLD induction

CCC(C(=O)OCCOCCN(CC)CC)c1ccccc1 (stereo unspecified)	inactive
O=C(CCCCCCC(=O)Nc1ccccc1)NO	inactive
O=C(NCCCN1CCOCC1)c1ccc(Cl)cc1	inactive
CC(=O)CC(c1ccc([N+](=O)[O-])cc1)c1c(O)c2ccccc2oc1=O (stereo unspecified)	inactive

Would you be so kind as to report PLD induction for each listed record?
1. O=C(CCCN1CCN(c2ccc(F)cc2)CC1)NC1c2ccccc2CSc2ccccc21 (stereo unspecified)
2. CC1(C)O[C@@H]2C[C@H]3[C@@H]4CCC5=CC(=O)C=C[C@]5(C)[C@H]4[C@@H](O)C[C@]3(C)[C@]2(C(=O)CO)O1
3. Cc1oncc1C(=O)Nc1ccc(C(F)(F)F)cc1
4. Nc1nccs1

[out]
inactive
inactive
inactive
inactive

Would you be so kind as to report PLD induction for each listed record?
1. CCn1cc(C(=O)O)c(=O)c2cc(F)c(N3CCNCC3)nc21
2. CO[C@H]1C=CO[C@@]2(C)Oc3c(C)c(O)c4c(O)c(c5c(c4c3C2=O)=NC2(CCN(CC(C)C)CC2)N=5)NC(=O)/C(C)=C\C=C/[C@H](C)[C@H](O)[C@@H](C)[C@@H](O)[C@@H](C)[C@H](OC(C)=O)[C@@H]1C
3. CC[C@@H]([C@H](C)O)n1ncn(-c2ccc(N3CCN(c4ccc(OC[C@@H]5CO[C@@](Cn6cncn6)(c6ccc(F)cc6F)C5)cc4)CC3)cc2)c1=O

[out]
1: inactive; 2: inactive; 3: inactive

---

experiment: A CellTox Green Cytotoxicity Assay to monitor cytotoxicity in HepG2 cells - 24 hour (AID 1224878); conditions: CellTox Green fluorescence; series mostly up to 76.8 µM; also: % is scaled to controls: 0 for no effect and ±100 for the full control effect; nearly all actives have a fitted effect of over 45% in size
Records with an inconclusive call do not appear. The source made the active and inactive calls. Calls come from the whole dose curve; as a rule, active = well fitted activation curve with a large enough effect in the repeat runs; inconclusive = weak or mixed curves; inactive = flat fitted curve, though single readings scatter.
Outcomes you can answer with include only these: active, inactive

[in] Please let me know the test result on file for Oc1ccc(Nc2ccccc2)cc1 .
[out] inactive

[in] Please let me know the test result on file for CC(=O)[C@H]1CC[C@H]2[C@@H]3C[C@H](C)C4=CC(=O)CC[C@]4(C)[C@H]3[C@@H](O)C[C@]12C .
[out] inactive

[in] Please let me know the test result on file for O=Cc1c(Cl)cccc1Cl .
[out] inactive

[in] Please let me know the test result on file for CCn1cc(C(=O)O)c(=O)c2cc(F)c(N3CCNCC3)nc21 .
[out] inactive

[in] Please let me know the test result on file for Cc1ccc(S(=O)(=O)NC2CCCCC2)cc1 .
[out] inactive

[in] Please let me know the test result on file for Cc1c(C(=O)NN2CCCCC2)nn(-c2ccc(Cl)cc2Cl)c1-c1ccc(Cl)cc1 .
[out] inactive

[in] Please let me know the test result on file for Cc1oc(C)c(C(=O)Nc2ccccc2)c1C .
[out] inactive

---

assay: qHTS assay to identify small molecule antagonists of the estrogen related receptor signaling pathway with the pleiotropic PPARgamma coactivator (PGC) from Tox21 10K library - cell viability counter screen (AID 1224840); settings: PGC/ERR reporter cells viability, CellTiter-Fluor, 17.5 h; series mostly up to 92.4 µM; also: nearly all actives have a fitted effect of over 40% in size
Records with an inconclusive call do not appear. The source made the active and inactive calls. The call rests on the fitted dose curve; in most records, active means well fitted cell-killing curve with a large enough effect in the repeat runs (not every such curve was filed as active); inconclusive means weak or mixed curves, or effect the other way; inactive means no such curve, though single readings can be large or run the other way.
Outcomes you can answer with include only these: active, inactive

Observe how each entry below is paired with its result.
Cc1cc(O)c2c(O)c3c(O)cccc3cc2c1	inactive
Nc1ccc(Cl)cc1[N+](=O)[O-]	inactive
CCOC(=O)/C=C/C(=O)O	inactive
CC(C)(CCl)c1ccccc1	inactive

[in] Please let me know the test result on file for CCC(C)(C)C1CCC(O)CC1 (stereo not given) .
[out] inactive

[in] Please let me know the test result on file for C[C@@H]1C[C@H]2[C@@H]3CCC4=CC(=O)C=C[C@]4(C)[C@@]3(F)[C@@H](O)C[C@]2(C)[C@@]1(O)C(=O)CO .
[out] inactive

[in] Please let me know the test result on file for CC(C)C(OC(=O)c1ccccc1)C(C)(C)COC(=O)c1ccccc1 (stereo not given) .
[out] inactive

[in] Please let me know the test result on file for Cc1ccccc1N1C(=O)c2cc(S(N)(=O)=O)c(Cl)cc2NC1C (stereo not given) .
[out] inactive

[in] Please let me know the test result on file for CO[C@H]1C=CO[C@@]2(C)Oc3c(C)c(O)c4c(O)c(c5c(c4c3C2=O)=NC2(CCN(CC(C)C)CC2)N=5)NC(=O)/C(C)=C\C=C/[C@H](C)[C@H](O)[C@@H](C)[C@@H](O)[C@@H](C)[C@H](OC(C)=O)[C@@H]1C .
[out] active

[in] Please let me know the test result on file for CCCCC(CC)COC(=O)COc1ccc(Cl)cc1C (stereo not given) .
[out] inactive

---

Molecular target: Cytochrome P450 3A4 (Homo sapiens) (UniProt P08684)
Sequence (P08684 whole entry, looked up): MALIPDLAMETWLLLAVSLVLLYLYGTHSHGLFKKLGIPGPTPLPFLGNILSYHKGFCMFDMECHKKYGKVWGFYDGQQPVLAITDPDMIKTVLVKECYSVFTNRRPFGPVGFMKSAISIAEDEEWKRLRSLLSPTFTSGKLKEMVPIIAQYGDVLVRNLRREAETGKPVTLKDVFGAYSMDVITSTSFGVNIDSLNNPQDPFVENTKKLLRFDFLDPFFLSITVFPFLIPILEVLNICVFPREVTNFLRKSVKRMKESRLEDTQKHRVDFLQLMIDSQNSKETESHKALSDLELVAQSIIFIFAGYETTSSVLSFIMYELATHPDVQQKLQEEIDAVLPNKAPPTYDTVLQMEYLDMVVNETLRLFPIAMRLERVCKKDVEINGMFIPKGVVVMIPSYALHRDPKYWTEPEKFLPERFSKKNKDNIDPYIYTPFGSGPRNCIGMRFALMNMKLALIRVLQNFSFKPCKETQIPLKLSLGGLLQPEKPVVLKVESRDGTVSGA
Experiment: Cytochrome P450 Family 3 Subfamily A Member 4 (CYP3A4) small molecule antagonists: luciferase reporter qHTS assay (AID 1671201); also: % is scaled to controls: 0 for no effect and ±100 for the full control effect; nearly all actives have a fitted effect of over 50% in size
Conditions: P450-Glo CYP3A4 enzyme, luciferin luminescence, 1 h; series mostly up to 115 µM
Text: National Center for Advancing Translational Sciences [NCATS] U.S. Environmental Protection Agency [EPA] National Institutes of Environmental Health Sciences [NIEHS] National Toxicology Program [NTP] U.S. Food and Drug Administration [FDA] Cytochrome P450 (CYP) enzymes are membrane-bound hemeproteins that play a key role in metabolism of drugs and xenobiotics. […] The luciferin products formed are detected with a luciferin detection reagent, and the amount of light produced is proportional to CYP activity. […]
Records with an inconclusive call do not appear. Calls of active or inactive are those of the source. Calls follow the shape of the dose curve; as a rule, active = well fitted inhibition curve with a large enough effect in the repeat runs; inconclusive = weak or mixed curves; inactive = no such curve, though single readings can be large or run the other way.
measured.quantity: activity change, negative = inhibition

Some molecules with recorded activity change, negative = inhibition:
CC1CN(c2cc3c(cc2F)c(=O)c(C(=O)O)cn3-c2ccc(F)cc2F)CCN1 (stereo not given)	4.32% [at 10.5 µM] (inactive)
C=CCCCCCCCCCCCCCCCC	6.02% [at 10.5 µM] (inactive)
[O]=[Bi]	0.199% [at 10.5 µM] (inactive)
CCCCCCCCCCCCCCCCBr	-0.429% [at 23.6 µM] (inactive)

Field activity change, negative = inhibition (Cytochrome P450 3A4 (Homo sapiens) (UniProt P08684)), entry CN1CCN(c2c(F)cc3c(=O)c(C(=O)O)cn4c3c2OCN4C)CC1 : 3.15% [at 23.6 µM] (inactive)
